target: CjIMPDHΔS (Campylobacter jejuni, UniProt Q0P9J4, INS91G/DEL92-195); construct: gene guaB; assay: NADH production, A340; type: biochemical; details: pH 8.0, 1 mM IMP, NAD+ about 2.5 x Km, 10 min preincubation, room temperature; read-out: IC50 / 7
Sequence (Q0P9J4 1-485, stated change not applied): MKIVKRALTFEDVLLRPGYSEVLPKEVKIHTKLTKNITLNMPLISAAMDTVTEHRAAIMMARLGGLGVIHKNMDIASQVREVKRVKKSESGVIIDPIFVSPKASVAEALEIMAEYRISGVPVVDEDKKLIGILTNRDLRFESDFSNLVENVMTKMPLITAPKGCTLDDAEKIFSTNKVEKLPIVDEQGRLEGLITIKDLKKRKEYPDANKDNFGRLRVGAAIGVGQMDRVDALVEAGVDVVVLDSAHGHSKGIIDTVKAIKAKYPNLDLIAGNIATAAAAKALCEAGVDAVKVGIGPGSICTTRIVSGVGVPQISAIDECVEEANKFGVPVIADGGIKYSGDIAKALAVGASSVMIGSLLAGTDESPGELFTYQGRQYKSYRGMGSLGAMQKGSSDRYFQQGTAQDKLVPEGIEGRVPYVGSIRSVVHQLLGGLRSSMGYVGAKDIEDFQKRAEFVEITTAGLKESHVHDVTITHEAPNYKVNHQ
Reported property: IC50 (nM)
Return type: number; implicit unit nM.

The compound C[C@H](Oc1cccc2ccccc12)C(=O)Nc1ccc2oc(-c3ccncc3)nc2c1 showed IC50 equal to 19

----------
Target: CpIMPDH (Cryptosporidium parvum, UniProt Q8T6T2)
Construct: gene 56k.02; recombinant
Sequence (Q8T6T2 whole entry): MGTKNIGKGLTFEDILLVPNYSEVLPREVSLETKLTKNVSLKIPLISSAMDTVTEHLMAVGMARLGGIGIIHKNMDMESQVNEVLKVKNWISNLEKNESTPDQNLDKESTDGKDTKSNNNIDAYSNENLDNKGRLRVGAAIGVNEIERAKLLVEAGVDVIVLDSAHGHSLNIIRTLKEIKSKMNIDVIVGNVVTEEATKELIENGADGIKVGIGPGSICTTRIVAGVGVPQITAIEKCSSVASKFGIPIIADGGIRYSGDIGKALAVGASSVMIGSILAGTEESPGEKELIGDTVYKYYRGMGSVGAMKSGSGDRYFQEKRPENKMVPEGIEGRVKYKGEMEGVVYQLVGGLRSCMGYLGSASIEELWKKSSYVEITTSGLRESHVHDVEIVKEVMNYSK
Test: NADH production, A340
Assay type: biochemical
Conditions: read-out: IC50 / 4
Description: NADH production, A340 on CpIMPDH
Reported property: pIC50
pIC50 here: minus log base 10 of the concentration, concentration in moles per litre.

Entry C=C(C)c1cccc(C(C)(C)NC(=O)Nc2ccc(Br)cc2)c1 [compound 4] , tested on CpIMPDH (Cryptosporidium parvum, UniProt Q8T6T2), has a reported pIC50 of 7.96
